Where do these numbers come from? They come from patent US10150733B2.

Biological target: mutated Abl (T315I) (human) (Homo sapiens, UniProt P00519, T315I)
Assay: Mutated Abl (T315I) (human) kinase assay, 33P-ATP filter binding
Format: biochemical
Details: 30 nM
Protocol: Mutated Abl (T315I) (Human)Kinase In a final reaction volume of 25 μL, mutated Abl (T315I) (human) (5-10 mU) is incubated with 8 mM MOPS pH7.0, 0.2 mM EDTA, […] EAIYAAPFAKKK, 10 mM Mg(OAc)2 and [γ-33P-ATP] [specific activity approx. 500 cpm/pmol, concentration as required]. The reaction is initiated by the addition of the MgATP mix. After incubation for 40 minutes at room temperature, the reaction is stopped by the addition of 5 μL of a 3% phosphoric acid solution. […]
MEASUREMENT KIND: inhibition at 0.03 µM (%)
# value in %; strip the unit string

Fill blank: measured inhibition at 0.03 µM of the molecule Cc1ccc(C(=O)NNC(=O)c2c(C)cccc2Cl)cc1C#Cc1ccc(NC(=O)CCN2CCN(C)CC2)nc1 [I.3] is ____.
94

Moving on to the next molecule: Cc1ccc(C(=O)NNC(=O)c2c(C)cccc2Cl)cc1C#Cc1ccc(NC(=O)CN2CCC(N(C)C)CC2)nc1 [I.4]
95

Moving on to the next molecule: CC(=O)Nc1ccc(C#Cc2cc(C(=O)NNC(=O)c3c(C)cccc3Cl)ccc2C)cn1 [I.6]
89

Moving on to the next molecule: Cc1ccc(C(=O)NNC(=O)c2c(C)cccc2Cl)cc1C#Cc1ccc(NC(=O)C2CC2)nc1 [I.1]
98

Moving on to the next molecule: Cc1ccc(C(=O)NNC(=O)c2c(C)cccc2Cl)cc1C#Cc1ccc(NC(=O)CN2CCC(N(C)C)C2)nc1 (stereo not drawn) [I.5]
96

Moving on to the next molecule: Cc1ccc(C(=O)NNC(=O)c2c(C)cccc2Cl)cc1C#Cc1ccc(NC(=O)CN(C)C)nc1 [I.2]
87
